Assignment: determine reported composite z-score for the given molecules.
- assay overview: small-molecule microarray binders of probe aDKK1, primary screen, biochemical, biotinylated probe, 635/667 nm fluorescence (AID 1099);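 further: score merges 667nm spot fluorescence with signal to noise across triplicate slides; reference of the scale not given here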
- test parameters: higher = more signal
Lab note: record the figure alone, no unit after it.

Query (molecule): Cc1ccc(S[C@]2(C(=O)NCCN3CCOCC3)CC(=O)N(Cc3ccccc3Cl)[C@@H]2c2ccc(CO)cc2)cc1 ; field requested: composite z-score
-0.123

Look up composite z-score for this molecule: O=C(NCc1ccccc1)[C@@]1(Cc2ccccc2)N=C(c2ccc(OCCCO)cc2)O[C@H]1c1ccccc1
1.15

Given the entry C=CCNC(=O)[C@H]1[C@@H]2C(=O)O[C@@H](c3ccccc3)[C@@H](c3ccccc3)N2[C@@H](c2ccc(O)cc2)[C@]12C(=O)N(C(=O)OCCOC)c1ccc(C#CCNC(N)=O)cc12 , report its measured composite z-score.
0.297

Could you share which composite z-score value was measured for [N-]=[N+]=NCc1ccccc1[C@@H]1OC(c2ccc(OCCCO)cc2)=N[C@]1(CCS(=O)(=O)c1ccccc1)C(=O)NCCN1CCOCC1 ?
0.934

Look up composite z-score for this molecule: C=CC[C@]1(C(=O)NCCCOC)N=C(c2ccc(OCCCO)cc2)O[C@H]1c1ccccc1N=[N+]=[N-]
-0.188

Would you kindly share the measured composite z-score for CN(C)CCCNC(=O)[C@@]1(c2ccc([N+](=O)[O-])cc2)CC(=O)N(C2CCCCC2)[C@@H]1c1ccc(CO)cc1I ?
-0.116

Query (molecule): COc1cc2c(cc1OC)CN(C(=O)[C@@H]1[C@H]3C(=O)O[C@H](c4ccccc4)[C@H](c4ccccc4)N3[C@H](c3ccc(O)cc3)[C@@]13C(=O)Nc1ccc(C#CC4(O)CCCCCC4)cc13)CC2 ; field requested: composite z-score
-0.767

###

- assay overview: small-molecule microarray binders of probe aShh, primary screen, biochemical, biotinylated probe, 635/667 nm fluorescence (AID 1114);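 further: probe is biotin-labelled aShh protein from a stem cell growth factor screen; measures binding of labelled protein to compounds printed on the slide; score merges feature fluorescence at 667 nm with signal-to-noise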
- test parameters: higher = more signal
Please go through the items and note down their composite z-score.
The reply should be a number, written without any unit.

If you can, please state the reported composite z-score value of CN(C)C(=O)[C@@]1(Cc2ccccc2)N=C(c2ccc(OCCCO)cc2)O[C@H]1c1ccccc1N=[N+]=[N-] .
-0.0146

Find the recorded composite z-score belonging to COC(=O)[C@@]1(Cc2ccc(F)cc2)[C@H]2c3cc(C(=O)N(C)C)n(Cc4ccc(S(C)(=O)=O)cc4)c3C[C@H]2CN1C(=O)c1ccccc1 and report it.
0.123

Please look up its composite z-score: O=C1OCCC/C=C\[C@H]2OC34C=CCN(CCN5CCOCC5)C(=O)[C@H]3N(CCCO)C(=O)[C@@H]4C12 (some centres undefined)
-0.26

Look up composite z-score for this compound: C=CC[C@]12N=C(c3ccc(OCCCO)cc3)O[C@H]1c1ccccc1N(Cc1ccccc1)C2=O
-0.0146

###

- Test system: XIP peptide (Xip251-270) binding
- assay overview: small-molecule binders of XIP peptide, primary screen, biochemical, small-molecule microarray, fluorescence 635/667 nm, 0.1 µg/mL protein (AID 1182)
- test parameters: fluorescent protein binding, 635 nm, higher = more signal, called active from +8 up or from −8 down
observable: composite z-score
The reply should be a number, written without any unit.

Given the compound COCCOC(=O)N1C(=O)[C@@]2(c3ccccc31)[C@H](c1ccc(O)cc1)N1[C@H](c3ccccc3)[C@H](c3ccccc3)OC(=O)[C@H]1[C@@H]2C(=O)NC[C@H](O)c1ccccc1 , what is its reported composite z-score?
2.15

Can you look up the measured composite z-score of CN1C(=O)C2C=CC(C(O)c3cccs3)N(Nc3ccccc3)C2C1=O (stereo not drawn) for me?
0.193

What composite z-score value was documented for this compound, CC(C)(C)OC(=O)CC[C@@]1(C(=O)NCCN2CCOCC2)N=C(c2ccc(OCCCO)cc2)O[C@@H]1c1ccccc1N=[N+]=[N-] ?
0.171

Entry under review: C=CCOC(=O)[C@@H]1[C@H]2C(=O)O[C@H](c3ccccc3)[C@H](c3ccccc3)N2[C@H](c2ccc(OCCOC(=O)[C@@H]3C[C@@H]4C(=O)N[C@@H](CCCC[N+](C)(C)C)C(=O)N4[C@@H]3c3cccc(OCCO)c3)cc2)[C@@]12C(=O)Nc1ccc(I)cc12 . Reported composite z-score?
1.18

Please report the recorded composite z-score for O=C1NCC(=O)N2[C@@H]1C[C@@H](C(=O)O)[C@H]2c1cccc(OCCO)c1 .
6.39

Look at this compound and give its reported composite z-score. C=CCN1C(=O)[C@@]2(O[C@@H](CCO)[C@H]([Si](C)(C)c3ccc(OC)cc3)[C@H]2C)c2cc(NC(=O)c3ccc(OC)cc3)ccc21
0.574

Which composite z-score value belongs to COc1ccc(C(O)C2C=CC3C(=O)N(c4ccccc4)C(=O)C3N2Nc2ccccc2F)cc1OCc1ccccc1 (stereo not drawn) ?
1.26

Which composite z-score reading was recorded for the compound COc1ccc(CCN2C(=O)[C@@]3(c4ccc([N+](=O)[O-])cc4)CC(=O)N(C4CCCCC4)[C@@H]3c3ccc(CO)cc32)cc1 ?
1.23

Query: composite z-score; subject: CC(C)[C@@H](CO)NC(=O)[C@H]1[C@@H](c2ccccc2)N(c2ccccc2)O[C@@H]1C
-0.795

Entry CC(=O)N1Cc2ccccc2C[C@@]2(COC(c3ccc(OCCCO)cc3)=N2)C1=O : reported composite z-score = ?
1.44

Entry under review: O=C1OCCC/C=C\[C@H]2OC34C=CCN(c5ccc6ccccc6c5)C(=O)[C@H]3N(CCCCCCO)C(=O)[C@@H]4C12 (stereo partly drawn) . Reported composite z-score?
0.346

composite z-score for C[N+](C)(C)CCCCNC(=O)[C@H]1C[C@H]2C(=O)N[C@@H](Cc3ccccc3)C(=O)N2[C@H]1c1ccc(O)cc1 ?
1.17

Can you share its composite z-score? I mean this compound: COc1cc2c(cc1OC)CN(C(=O)[C@H]1[C@@H]3C(=O)O[C@@H](c4ccccc4)[C@@H](c4ccccc4)N3[C@@H](c3ccc(O)cc3)[C@]13C(=O)Nc1ccc(C#CC4=CCCCC4)cc13)CC2
0.546

So what does the record say about composite z-score for CCN(CC)c1ccc(N2CC=CC34O[C@@H]5/C=C\CCC(C)OC(=O)C5[C@H]3C(=O)N(C(CO)C(C)C)[C@@H]4C2=O)cc1 (stereo partly drawn) ?
0.0003

Which composite z-score reading was recorded for the compound CC(=O)NCCCC[C@@H]1NC(=O)[C@@H]2C[C@H](C(=O)NCCCCN(C)C)[C@H](c3cccc(OCCO)c3)N2C1=O ?
0.172

Which composite z-score is listed for COc1ccc(CCNC(=O)[C@@]2(Sc3ccc(C)cc3)CC(=O)N(C3CCCCC3)[C@@H]2c2ccc(CO)cc2I)cc1 ?
0.0537

Request the reported composite z-score associated with [N-]=[N+]=NCc1ccccc1C[C@]1(C(=O)NCC(O)CO)N=C(c2ccc(OCCCO)cc2)O[C@H]1c1ccccc1 (stereo partly drawn)
0.417

Entry under review: O=C1O[C@H](c2ccccc2)[C@H](c2ccccc2)N2[C@H]1[C@@H](C(=O)Nc1nc3ccccc3s1)[C@]1(C(=O)Nc3ccc(C#CC4(O)CCCCCC4)cc31)[C@H]2c1ccc(OCCO)cc1 . Reported composite z-score?
2.25

Can you look up the measured composite z-score of O=C1[C@H]2C=C(Br)[C@H](C[C@@H]2c2ccccc2)[C@@]12CO2 for me?
0.122

What does the record list as composite z-score for CC(C)OC(=O)C=C1C[C@@H](c2ccccc2C(F)(F)F)O[C@@H](c2ccccc2C(F)(F)F)O1 ?
-0.245

composite z-score for COC(=O)[C@@]1(Cc2ccc(OC)cc2)[C@H]2c3cc(C(=O)N4CCCC4)n(Cc4ccccc4)c3C[C@H]2CN1C(=O)c1ccccc1 ?
0.738

Fill in the blank: the reported composite z-score of COCCOC(=O)N1C(=O)[C@@]2(c3cc(C#Cc4ccc(OC)cc4)ccc31)[C@H](c1ccc(O)cc1)N1[C@H](c3ccccc3)[C@H](c3ccccc3)OC(=O)[C@H]1[C@@H]2C(=O)NC[C@H](O)c1ccccc1 is ____.
0.27

Which measured composite z-score value corresponds to NCCCCCNC(=O)[C@@H]1C[C@@H]2C(=O)N[C@@H](Cc3ccccc3)C(=O)N2[C@@H]1c1cccc(OCCO)c1 ?
0.251

###

What composite z-score was measured for each of the following?
- assay overview: small-molecule microarray binders of probe aWnt5a, primary screen, biochemical, biotinylated probe, 635/667 nm fluorescence (AID 1113);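 further: score merges 667 nm fluorescence intensity with signal-to-noise per printed feature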
- test parameters: higher = more signal

Suppose we examine the molecule CCOC(=O)C[C@H]1[C@H](OC(=O)Cc2ccc3c(c2)OCO3)[C@@H](NC(=O)c2ccc(-c3ccccc3)cc2)c2cc(OCCCO)ccc2N1C(=O)Cc1ccc(OC)cc1 ; what composite z-score value has been reported?
0.0673

Look up composite z-score for this molecule: C=CCNC(=O)[C@H]1[C@@H]2C(=O)O[C@@H](c3ccccc3)[C@@H](c3ccccc3)N2[C@@H](c2ccc(OCCO)cc2)[C@]12C(=O)N(C(=O)OCCOC)c1ccccc12
-0.14

# query: composite z-score of entry C=CCC(OC(C)=O)[C@@H]1[C@@H](N(Cc2cccc3ccccc23)C(=O)c2ccc(-c3ccccc3)cc2)c2cc(OCCCO)ccc2N1C(=O)Cc1ccc(OC)cc1 (some centres not stated)
0.0479

Need composite z-score, item CN(C)CCCCCCNC(=O)[C@@H]1C[C@@H]2C(=O)N[C@@H](CCCCN)C(=O)N2[C@@H]1c1cccc(OCCO)c1
1.07

For O=C1C2C=CC(C(O)c3c(F)cccc3Cl)N(Nc3ccccc3)C2C(=O)N1c1ccccc1 (configuration not stated) , what is its reported composite z-score?
0.0775

Param item = CN1C(=O)C2C=CC(C(O)C3CC=CCC3)N(NC(=O)OC(C)(C)C)C2C1=O (configuration not stated) ; retrieve measured composite z-score.
-0.0539

Item COc1cc2c(cc1O)C(C1CC1)N(Cc1cc3c(cc1Br)OCO3)CC2 (configuration not stated) has what recorded composite z-score?
-0.124
